# Substrate: O=C(O)CCC(=O)C1=CC=C[C@@H](O)[C@@H]1C(=O)O
# TEST PROTOCOL: purified protein
# Type: biochemical, Thermobifida fusca
# SETTINGS: 50 mM Tris pH 8.0, 0.1 mM MnCl2, 25°C
# key: entry, value: Km
Write it as a number; the unit µM goes unstated.

// solved cases for Km follow
protein="T. fusca OSBS (Thermobifida fusca YX; F37A) (protein) MTGRAFAIPLRTRFRGITVREGMLVRGAAGWGEFSPAAEYGPRECARWWAACYEAAELGWPAPVRDTVPVNATVPAVGPEEAARIVASSGCTTAKVKVAERGQSEANDVARVEAVRDALGPRGRVRIDVNGAWDVDTAVRMIRLLDRFELEYVEQPCATVDELAEVRRRVSVPIAADESIRRAEDPLRVRDAEAADVVVLKVQPLGGVRAALRLAEECGLPVVVSSAVETSVGLAAGVALAAALPELPYACGLATLRLLHADVCDDPLLPVHGVLPVRRVDVSEQRLAEVEIDPAAWQARLAAARAAWEQVEREPGP" number=666
protein="T. fusca OSBS (Thermobifida fusca YX) (protein) MTGRAFAIPLRTRFRGITVREGMLVRGAAGWGEFSPFAEYGPRECARWWAACYEAAELGWPAPVRDTVPVNATVPAVGPEEAARIVASSGCTTAKVKVAERGQSEANDVARVEAVRDALGPRGRVRIDVNGAWDVDTAVRMIRLLDRFELEYVEQPCATVDELAEVRRRVSVPIAADESIRRAEDPLRVRDAEAADVVVLKVQPLGGVRAALRLAEECGLPVVVSSAVETSVGLAAGVALAAALPELPYACGLATLRLLHADVCDDPLLPVHGVLPVRRVDVSEQRLAEVEIDPAAWQARLAAARAAWEQVEREPGP" number=182
protein="T. fusca OSBS (Thermobifida fusca YX; G252T) (protein) MTGRAFAIPLRTRFRGITVREGMLVRGAAGWGEFSPFAEYGPRECARWWAACYEAAELGWPAPVRDTVPVNATVPAVGPEEAARIVASSGCTTAKVKVAERGQSEANDVARVEAVRDALGPRGRVRIDVNGAWDVDTAVRMIRLLDRFELEYVEQPCATVDELAEVRRRVSVPIAADESIRRAEDPLRVRDAEAADVVVLKVQPLGGVRAALRLAEECGLPVVVSSAVETSVGLAAGVALAAALPELPYACTLATLRLLHADVCDDPLLPVHGVLPVRRVDVSEQRLAEVEIDPAAWQARLAAARAAWEQVEREPGP" number=668
protein="T. fusca OSBS (Thermobifida fusca YX; R126M) (protein) MTGRAFAIPLRTRFRGITVREGMLVRGAAGWGEFSPFAEYGPRECARWWAACYEAAELGWPAPVRDTVPVNATVPAVGPEEAARIVASSGCTTAKVKVAERGQSEANDVARVEAVRDALGPRGRVMIDVNGAWDVDTAVRMIRLLDRFELEYVEQPCATVDELAEVRRRVSVPIAADESIRRAEDPLRVRDAEAADVVVLKVQPLGGVRAALRLAEECGLPVVVSSAVETSVGLAAGVALAAALPELPYACGLATLRLLHADVCDDPLLPVHGVLPVRRVDVSEQRLAEVEIDPAAWQARLAAARAAWEQVEREPGP" number=470

Now consider the entry below.
Quick check: Km of T. fusca OSBS (Thermobifida fusca YX; G252A) (protein) MTGRAFAIPLRTRFRGITVREGMLVRGAAGWGEFSPFAEYGPRECARWWAACYEAAELGWPAPVRDTVPVNATVPAVGPEEAARIVASSGCTTAKVKVAERGQSEANDVARVEAVRDALGPRGRVRIDVNGAWDVDTAVRMIRLLDRFELEYVEQPCATVDELAEVRRRVSVPIAADESIRRAEDPLRVRDAEAADVVVLKVQPLGGVRAALRLAEECGLPVVVSSAVETSVGLAAGVALAAALPELPYACALATLRLLHADVCDDPLLPVHGVLPVRRVDVSEQRLAEVEIDPAAWQARLAAARAAWEQVEREPGP ?
86
